# Organism: Rattus norvegicus
# Test Name: The compound was tested in vitro for the growth hormone release in rat pituitary cell assays
# Format: functional, Pituitary gland cell
# Measurement Conditions: Rattus norvegicus, Pituitary gland cell
Non-standard residues stand in square brackets, D forms with d. Residues, ends and D or L forms follow the SMILES beside them.
Collected pEC50 values appear next to each entry.
pEC50 field: float, defined as -log10 of concentration (mol/L).

Worked examples follow.
# Molecule, Value Measured
measured = [
    ("COc1nsnc1-c1ccccc1-c1ccc(CN2C(=O)[C@H](NC(=O)CC(C)(C)N)CCc3ccccc32)cc1", 5.74),
    ("Cc1noc(-c2ccccc2-c2ccc(CN3C(=O)[C@H](NC(=O)CC(C)(C)N)CCc4ccccc43)cc2)n1", 5.98),
]

Task: Request the reported pEC50 associated with C[C@H](NC(=O)[C@@H](Cc1c[nH]c2ccccc12)NC(=O)[C@@H](N)Cc1c[nH]cn1)C(=O)N[C@@H](Cc1c[nH]c2ccccc12)C(=O)N[C@H](Cc1ccccc1)C(=O)N[C@@H](CCCCN)C(N)=O (H-H[dW]AW[dF]K-NH2)
Output: 8.70

Task: For Cc1nnc(-c2cscc2-c2ccc(CN3C(=O)[C@H](NC(=O)CC(C)(C)N)CCc4ccccc43)cc2)o1 , what is its reported pEC50?
Output: 6.90

* * *

# Species on record: Rattus norvegicus
# Test Name: The compound was tested in vitro for the growth hormone release in rat pituitary cell assays
# Assay type: functional, Pituitary gland cell
# Measurement Conditions: Rattus norvegicus, Pituitary gland cell
Parameter: pEC50
Hey, just a heads up that pEC50 is the negative log base 10 of the concentration in molar.

# Smiles Text, pEC50
records = [
    ("CC(C)(N)CC(=O)N[C@@H]1CCc2ccccc2N(Cc2ccc(-c3ccccc3-c3nc[nH]n3)cc2)C1=O", 7.05),
]

Task: Any idea what its pEC50 is? The compound is CC(C)(N)CC(=O)N[C@@H]1CCc2ccccc2N(Cc2ccc(-c3cscc3-c3nn[nH]n3)cc2)C1=O
Output: 6.82

Task: What value of measured pEC50 is listed for CC(C)(N)CC(=O)N[C@@H]1CCc2ccccc2N(Cc2ccc(-c3sccc3-c3nn[nH]n3)cc2)C1=O ?
Output: 6.85

Every entry's value here was drawn from ChEMBL document CHEMBL1129871.
